Catalogue of compounds with associated Herbicidal effects Scirpus joncoides
- System: Scirpus joncoides
- Method Summary: Test Example 1: herbicidal effects, paddy-field pot test
- Type: in vivo
- Details: chemical dosage 25 g/a; wettable powder applied 3 days after transplanting; judged after 25 days
- Method: A paddy soil was filled in 1/10,000 are pot, and seeds of barnyardgrass (Echinochloa oryzicola Vasing.), Scirpus joncoides and annual broad-leaved weeds (Lindernia spp., Rotala indica) which are awaken from dormancy were mixed at the surface layer of 1 cm. Also, tuber of Cyperus serotinus which is germinated was planted, and further seedlings of paddy-field rice at 2.2-leaf stage were transplanted, and they were grown under the flooded condition in a greenhouse. […]

>>> experimental_value("Oc1cc(Cl)nnc1Oc1ccccc1C1CCCC1")
"5 (Growth inhibition rate; 91 to 100%)"
>>> experimental_value("CSCc1c(C)ccc(C)c1Oc1nnc(Cl)cc1O")
"4 (Growth inhibition rate; 71 to 90%)"
>>> experimental_value("Cc1ccc(Cl)cc1Oc1nnc(Cl)cc1O")
"5 (Growth inhibition rate; 91 to 100%)"
>>> experimental_value("Cc1cc(C)c(C)c(Oc2nnc(Cl)cc2O)c1C")
"5 (Growth inhibition rate; 91 to 100%)"
>>> experimental_value("Oc1cc(Cl)nnc1Oc1cccc2ccccc12")
"3 (Growth inhibition rate; 51 to 70%)"

Consider now this further compound.
Recorded Herbicidal effects Scirpus joncoides for CCc1cccc(CC)c1Oc1nnc(Cl)cc1O , please? 5 (Growth inhibition rate; 91 to 100%)

----------
Quantity: melting point

The cases that follow already have their melting point on record.
>>> experimental_value("Cc1cccc(C2CC2)c1Oc1nnc(Cl)cc1OC(=O)N(CCCl)CCCl")
"166 to 167 °C"
>>> experimental_value("C=C(C)Cc1cccc(Cl)c1Oc1nnc(Cl)cc1O")
"198 to 200 °C"

# melting point lookup, item Cc1c(Oc2nnc(Cl)cc2O)cccc1[N+](=O)[O-] 241 to 244 °C

----------
Quantity: melting point

>>> experimental_value("CC=Cc1ccccc1Oc1nnc(Cl)cc1O")
"204 to 206 °C"
>>> experimental_value("Cc1ccc2c(c1Oc1nnc(Cl)cc1O)CCC2")
"222 to 225 °C"

Give its melting point value. Item: Cc1cccc(C2CC2)c1Oc1nnc(Cl)cc1OS(=O)(=O)c1ccccc1 105 to 106 °C

Look up melting point: Oc1cc(Cl)nnc1Oc1c(F)cccc1F 209 to 213 °C

State the recorded melting point for this entry: COc1ccc(C)c(Oc2nnc(Cl)cc2O)c1 170 to 172 °C

melting point lookup needed for Cc1cccc(C(C)C)c1Oc1nnc(Cl)cc1O , thanks. 215 to 220 °C

What value of melting point has been recorded for this entry: Cc1ccccc1Oc1nnc(C2CC2)cc1O 214 to 215 °C

For the compound COc1ccc(C)cc1Oc1nnc(Cl)cc1O , what melting point is on record? 126 to 134 °C

Request the reported melting point associated with Oc1cccc(Oc2nnc(Cl)cc2O)c1 248 to 251 °C

Bench note: what melting point did CC(C)(C)c1ccccc1Oc1nnc(Cl)c([Si](C)(C)C)c1O show? 160 to 163 °C

----------
Measured melting point accompanies every entry in the list below.

Some entries whose results are on file:
>>> experimental_value("COc1ccc(Oc2nnc(Cl)cc2O)cc1")
"260 to 263.5 °C"
>>> experimental_value("Cc1cccc(C2CC2)c1Oc1nnc(Cl)cc1O")
"201 to 202 °C"
>>> experimental_value("Cc1ccc(C2CC2)c(Oc2nnc(Cl)cc2O)c1C")
"229 to 234 °C"
>>> experimental_value("C=CCc1c(OC)ccc(CC)c1Oc1nnc(Cl)cc1O")
"183 to 186 °C"
>>> experimental_value("Oc1cc(Cl)nnc1Oc1ccccc1I")
"216 to 217 °C"

Return reported melting point; argument: Cc1nc2c(Oc3nnc(Cl)cc3O)cccc2o1 221 to 222 °C

Using the record for CC(C)c1cccc(Cl)c1Oc1nnc(Cl)cc1O , report its melting point. 218 to 233 °C

Given the entry CCOCc1ccccc1Oc1nnc(Cl)cc1O , report its measured melting point. 173 to 174 °C

# input compound: CCOC(=O)Oc1cc(Cl)nnc1Oc1ccccc1C ; wanted: its melting point 73 to 74 °C
